DMS-derived PSSM value (averaged), position K7 for assorted substances
- Tested on: PABPC1 PABC
- Assay type: binding, human
- PROTOCOL CONDITIONS: DMS-BM library, bait PABPC1 PABC, prey ATXN2, TLNPNAKEFNPRSF(averaged) over the two overlapping peptides; K = wild type, row aa = residue at this position
Give the figure only, with no unit attached.

>  <SUBSTANCE>
TLNPNAKEFNPRSF(averaged) K7T (TLNPNATEFNPRSF)

>  <EXPERIMENTAL VALUE>
0.01485

$$$$
>  <SUBSTANCE>
TLNPNAKEFNPRSF(averaged) K7Y (TLNPNAYEFNPRSF)

>  <EXPERIMENTAL VALUE>
0.2476

$$$$
>  <SUBSTANCE>
TLNPNAKEFNPRSF(averaged) K7E (TLNPNAEEFNPRSF)

>  <EXPERIMENTAL VALUE>
0.01581

$$$$

The reported DMS-derived PSSM value (averaged), position K7 of the substance TLNPNAKEFNPRSF(averaged) K7P (TLNPNAPEFNPRSF) was 0.005399

The reported DMS-derived PSSM value (averaged), position K7 of the substance TLNPNAKEFNPRSF(averaged) K7A (TLNPNAAEFNPRSF) was 0.1204

The reported DMS-derived PSSM value (averaged), position K7 of the substance TLNPNAKEFNPRSF(averaged) K7W (TLNPNAWEFNPRSF) was 0.01767

---

DMS-derived PSSM value (averaged), position A6 for assorted substances
- Test system: PABPC1 PABC
- Type: binding, human
- PROTOCOL CONDITIONS: DMS-BM library, bait PABPC1 PABC, prey ATXN2, TLNPNAKEFNPRSF(averaged) over the two overlapping peptides; A = wild type, row aa = residue at this position
Give the figure only, with no unit attached.

Consider the following illustrative entries.
>  <SUBSTANCE>
TLNPNAKEFNPRSF(averaged) A6N (TLNPNNKEFNPRSF)

>  <EXPERIMENTAL VALUE>
0

$$$$
>  <SUBSTANCE>
TLNPNAKEFNPRSF(averaged) A6W (TLNPNWKEFNPRSF)

>  <EXPERIMENTAL VALUE>
0

$$$$
>  <SUBSTANCE>
TLNPNAKEFNPRSF(averaged) A6I (TLNPNIKEFNPRSF)

>  <EXPERIMENTAL VALUE>
0.01774

$$$$
>  <SUBSTANCE>
TLNPNAKEFNPRSF(averaged) A6Y (TLNPNYKEFNPRSF)

>  <EXPERIMENTAL VALUE>
0

$$$$
>  <SUBSTANCE>
TLNPNAKEFNPRSF(averaged) A6L (TLNPNLKEFNPRSF)

>  <EXPERIMENTAL VALUE>
0

$$$$
>  <SUBSTANCE>
TLNPNAKEFNPRSF(averaged) A6E (TLNPNEKEFNPRSF)

>  <EXPERIMENTAL VALUE>
0

$$$$

Next:
The reported DMS-derived PSSM value (averaged), position A6 of the substance TLNPNAKEFNPRSF was 0.4881

---

- TARGET DESC: G3BP1 NTF2 (Homo sapiens)
- Sequence (Q13283 1-139): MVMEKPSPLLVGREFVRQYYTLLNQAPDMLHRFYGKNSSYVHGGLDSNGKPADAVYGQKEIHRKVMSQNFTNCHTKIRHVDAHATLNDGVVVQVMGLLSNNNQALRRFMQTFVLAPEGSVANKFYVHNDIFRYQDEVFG
- MEASUREMENT NOTES: biochemical
- Type: binding
- PROTOCOL CONDITIONS: KD
MEASUREMENT TYPE: Kd (µM)
Report only the number, with the unit µM understood.

Consider the following illustrative entries.
>  <SUBSTANCE>
Ac-APRITFGAPSDSTGSY-NH2 [N G19A]

>  <Kd [µM]>
1.1

$$$$
>  <SUBSTANCE>
Ac-APRITFGGPSDSTGSY-NH2 [N wt]

>  <Kd [µM]>
2.3

$$$$
>  <SUBSTANCE>
Ac-APRIEFGGPSDSTGSY-NH2 [N12–26 T16E]

>  <Kd [µM]>
16

$$$$

The reported Kd of the substance Ac-AERITFGGPSDSTGSY-NH2 [N P13E] was 6.8

The reported Kd of the substance Ac-APRITFGGPSDSTGSY-NH2 [N12–26] was 2

---

- Test system: PABPC1 PABC
- Assay type: binding, human
- PROTOCOL CONDITIONS: DMS-BM library, bait PABPC1 PABC, prey ATXN2, peptide KSTLNPNAKEFNPRSF; N = wild type, row aa = residue at this position
MEASUREMENT TYPE: DMS-derived PSSM value, position N7
Give the figure only, with no unit attached.

The reported DMS-derived PSSM value, position N7 of the sequence KSTLNPNAKEFNPRSF N7M (KSTLNPMAKEFNPRSF) was 0.02788

The reported DMS-derived PSSM value, position N7 of the sequence KSTLNPNAKEFNPRSF N7R (KSTLNPRAKEFNPRSF) was 0.005056

---

- TARGET DESC: NSP3 SUD-M (Severe acute respiratory syndrome coronavirus 2)
- MEASUREMENT NOTES: biochemical
- Format: binding, SARS‐CoV‐2
IC50 for assorted substances

>  <SUBSTANCE>
Ac-QFTEENLHFVLYGVTPY-NH2 [PRDM14 D201N]

>  <MEASUREMENT TYPE>
IC50

>  <EXPERIMENTAL VALUE>
1430 µM

$$$$
>  <SUBSTANCE>
Ac-QFTEEDLHFVLEGVTPY-NH2 [PRDM14 Y207E]

>  <MEASUREMENT TYPE>
IC50

>  <EXPERIMENTAL VALUE>
243 µM

$$$$
>  <SUBSTANCE>
Ac-QFTEEDLHFVLYGVTPY-NH2 [PRDM14 wt]

>  <MEASUREMENT TYPE>
IC50

>  <EXPERIMENTAL VALUE>
400 µM

$$$$
>  <SUBSTANCE>
Ac-QFTEEALHFVLYGVTPY-NH2 [PRDM14 D201A]

>  <MEASUREMENT TYPE>
IC50

>  <EXPERIMENTAL VALUE>
1050 µM

$$$$
>  <SUBSTANCE>
Ac-QFTEEELHFVLYGVTPY-NH2 [PRDM14 D201E]

>  <MEASUREMENT TYPE>
IC50

>  <EXPERIMENTAL VALUE>
90 µM

$$$$

The reported IC50 of the substance Ac-QFTEEDLMFVLYGVTPY-NH2 [PRDM14 H203M] was 124 µM

---

- System: PABPC1 PABC
- Assay type: binding, human
- PROTOCOL CONDITIONS: DMS-BM library, bait PABPC1 PABC, prey ATXN2, peptide KSTLNPNAKEFNPRSF; E = wild type, row aa = residue at this position
MEASUREMENT TYPE: DMS-derived PSSM value, position E10
Give the figure only, with no unit attached.

>  <ITEM SEQUENCE>
KSTLNPNAKEFNPRSF E10S (KSTLNPNAKSFNPRSF)

>  <TARGET DESC>
PABPC1 PABC

>  <DMS-derived PSSM value, position E10>
0

$$$$
>  <ITEM SEQUENCE>
KSTLNPNAKEFNPRSF E10F (KSTLNPNAKFFNPRSF)

>  <TARGET DESC>
PABPC1 PABC

>  <DMS-derived PSSM value, position E10>
0

$$$$
>  <ITEM SEQUENCE>
KSTLNPNAKEFNPRSF E10D (KSTLNPNAKDFNPRSF)

>  <TARGET DESC>
PABPC1 PABC

>  <DMS-derived PSSM value, position E10>
0

$$$$
>  <ITEM SEQUENCE>
KSTLNPNAKEFNPRSF E10R (KSTLNPNAKRFNPRSF)

>  <TARGET DESC>
PABPC1 PABC

>  <DMS-derived PSSM value, position E10>
0

$$$$

The reported DMS-derived PSSM value, position E10 of the sequence KSTLNPNAKEFNPRSF E10H (KSTLNPNAKHFNPRSF) was 0.3776

The reported DMS-derived PSSM value, position E10 of the sequence KSTLNPNAKEFNPRSF E10P (KSTLNPNAKPFNPRSF) was 0.01939

---

- System: PABPC1 PABC
- Format: binding, human
- PROTOCOL CONDITIONS: DMS-BM library, bait PABPC1 PABC, prey ATXN2, peptide TLNPNAKEFNPRSFSQ; N = wild type, row aa = residue at this position
MEASUREMENT TYPE: DMS-derived PSSM value, position N5
Give the figure only, with no unit attached.

Consider the following illustrative entries.
>  <ITEM SEQUENCE>
TLNPNAKEFNPRSFSQ N5G (TLNPGAKEFNPRSFSQ)

>  <DMS-derived PSSM value, position N5>
0.01384

$$$$
>  <ITEM SEQUENCE>
TLNPNAKEFNPRSFSQ N5R (TLNPRAKEFNPRSFSQ)

>  <DMS-derived PSSM value, position N5>
0.004201

$$$$
>  <ITEM SEQUENCE>
TLNPNAKEFNPRSFSQ N5L (TLNPLAKEFNPRSFSQ)

>  <DMS-derived PSSM value, position N5>
0.06159

$$$$
>  <ITEM SEQUENCE>
TLNPNAKEFNPRSFSQ N5M (TLNPMAKEFNPRSFSQ)

>  <DMS-derived PSSM value, position N5>
0.7094

$$$$
>  <ITEM SEQUENCE>
TLNPNAKEFNPRSFSQ N5Y (TLNPYAKEFNPRSFSQ)

>  <DMS-derived PSSM value, position N5>
0.002973

$$$$

The reported DMS-derived PSSM value, position N5 of the sequence TLNPNAKEFNPRSFSQ N5T (TLNPTAKEFNPRSFSQ) was 0.0193

The reported DMS-derived PSSM value, position N5 of the sequence TLNPNAKEFNPRSFSQ N5D (TLNPDAKEFNPRSFSQ) was 0.00392

The reported DMS-derived PSSM value, position N5 of the sequence TLNPNAKEFNPRSFSQ N5S (TLNPSAKEFNPRSFSQ) was 0.00244
